src = patent US20090318527A1

Biological target: 5-HT2C (Homo sapiens, UniProt P28335)
Sequence (P28335 33-458): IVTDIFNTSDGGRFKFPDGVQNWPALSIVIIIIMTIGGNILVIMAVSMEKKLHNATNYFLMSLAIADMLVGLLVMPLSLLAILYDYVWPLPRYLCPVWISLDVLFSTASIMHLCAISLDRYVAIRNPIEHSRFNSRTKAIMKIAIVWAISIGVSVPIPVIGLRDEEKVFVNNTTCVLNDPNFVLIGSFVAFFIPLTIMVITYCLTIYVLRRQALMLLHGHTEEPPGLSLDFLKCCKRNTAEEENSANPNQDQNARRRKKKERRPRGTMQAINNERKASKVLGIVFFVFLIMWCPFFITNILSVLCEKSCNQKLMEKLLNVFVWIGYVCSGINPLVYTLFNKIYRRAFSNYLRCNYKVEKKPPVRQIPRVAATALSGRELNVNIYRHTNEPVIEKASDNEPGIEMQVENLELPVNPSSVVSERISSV
Experiment: Intracellular calcium flux assay, HEK 293 cells stably expressing 5-HT2C;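 also: calcium dye fluorescence read on FLIPR Tetra as peak signal above baseline within 60 s of compound addition, seven concentrations from 10 pM to 10 µM, each in triplicate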
Conditions: at least three independent experiments, entries marked a (42, 50, 51, 52) single measurements, read-out: 5-HT2C mean EC50 ± SD
Output satisfied for records whose EC50 is lower than 40 nM, not satisfied for records at or above 40 nM.

These recorded examples may help you get a feel for the data.
{"molecule": "CCOc1cc(F)cc2c1c(CCN(C)C)cn2CC", "cat": "not satisfied"}
{"molecule": "CN(C)CCc1cn(C)c2cc(F)cc(OCc3ccccc3)c12", "cat": "not satisfied"}
{"molecule": "CCCOc1cc(F)cc2c1c(CCN(C)C)cn2CCC.Cl [Compound 39, hydrochloride]", "cat": "not satisfied"}
{"molecule": "CCCn1cc(CCN(C)C)c2cc(F)c(O)cc21", "cat": "not satisfied"}
{"molecule": "CCCOc1ccc(F)c2c1c(CCN(C)C)cn2C", "cat": "not satisfied"}

Task item: Report whether reported EC50 is lower than 40 nM (strictly) for "CCCOc1cc(F)cc2c1c(CCN(C)C)cn2CC"
Reply: not satisfied

Task item: Report whether reported EC50 is lower than 40 nM (strictly) for "COc1ccc(F)c2c1c(CCN(C)C)cn2C"
Reply: satisfied

Task item: Report whether reported EC50 is lower than 40 nM (strictly) for "CCOc1ccc(F)c2c1c(CCN(C)C)cn2CC"
Reply: not satisfied
